The origin of these recorded values is paper PMC12136788.

- system-tested: T1, UNK ZnF1-3 (human, UniProt Q9C0B0 31-174)
- T1 sequence: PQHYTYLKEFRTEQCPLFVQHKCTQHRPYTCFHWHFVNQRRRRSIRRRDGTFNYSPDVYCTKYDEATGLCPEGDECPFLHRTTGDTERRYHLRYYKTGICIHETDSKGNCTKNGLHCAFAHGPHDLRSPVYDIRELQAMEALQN
- measurement-protocol: nsRBNS (natural sequence RNA bind-n-seq); RBNS binding buffer (assumed for nsRBNS): 25 mM Tris pH 7.5, 150 mM KCl, 3 mM MgCl2, 0.01% Triton X-100, 500 ug/ml BSA, 20 U/ml SUPERase-In, 4 C; UNK is unkempt and MSI1 is Musashi-1; names of the RNAs are library labels; protein concentration not given here; high values mean tight binding
In all, about 24,000 sequences were measured (“enrichment r”: median about 0.99, highest 2% from about 3.7 on). For the sample, the highest values were picked, then their nearest neighbours and some sequences at random.
endpoint: binding signal (enrichment R)
// return numeric value only (unit: enrichment R, not printed)

Req: For the binder shown here, 75522086_75522670_732_CDS_ENSMUSG00000026213_ENSMUST00000113553|mouse|control|control (ssRNA) RNA: GGGAGUUCUACAGUCCGACGAUCCAGGAGACGCAGGGAGCUGUCUAAGCUCCUGAGCGCAUUGUAGCUGAAGUCGGCAGAAAGCAAGGCUAGCCAGGGGAGGGCAGAGCAGAGAUCCCCACCACAGGCUGACAAGAGCUCCUCCAACAGAGGAUUGAGCAUCA , give the reported binding signal.
Resp: 1.21

Now take the following binder into account.
Req: For the binder shown here, chr1:89687925:89687926:+_ENSMUSG00000026289_ENSMUST00000027512|mus_hu|FALSE|FALSE (ssRNA) RNA: GGGAGUUCUACAGUCCGACGAUCCCAGGACAGGGCUGCAGGAGCCCAUGUGCUUCUUCUGAGGAGGGCACUGGGGUCCUCCCAGCCCUGAGAGCCCCGUCAGUACUGUGCCCACAGCACAGCUUUGCAUCCUUUGUCCACACUCAACAGAGGAUUGAGCAUCA , give the reported binding signal.
Resp: 0.419
